Please provide measured apparent KD of MS2 coat protein for the entries that follow.
test system: MS2 coat protein; assay: apparent KD of MS2 coat protein; higher = weaker reporter binding; conditions: Eterna round: R107; input ligand: none
One number for each entry, in nM.

Solved entries:
input.sequence: GGAGCUACGUCGGCCGCCACUAGCGGUAAUUACGUGUACAUGAGGAUCACCCAUGUAAUAUGGACUAGGACCGGGACGUAGCUCC [Salmon]
unit.symbol: nM
result.number: 13.3
--
input.sequence: GUACGAGUUGAAUGUGAGACUGGCGUGGAAGGAGCGCACGGAGGUGCAGGUAGGUCGCCACAUGAGGAUCACCCAUGUCGGCUAG [XARG-A 23]
unit.symbol: nM
result.number: 23.2

Let us move to another entry and its apparent KD of MS2 coat protein.
Tell me the measured apparent KD of MS2 coat protein of AAACAUGAGGAUCACCCAUGUAUACUUAGACGAGGACCGGUACGGCCGCCACUCGAACUUCAAGAUUUGGCGGAUAAUGUAUGUA [JR_Nu22_ExcTryptoA_Sub023] , please.
10.9

The measurements presented in this section are drawn from the supplement of paper PMC9170038.
